target: Human neutrophil elastase (Homo sapiens, UniProt P08246 P08246:30-267); assay: filter; 3'-truncated; also FIG. 1; conditions: tags: Athens Research and Technology
Sequence (P08246 30-267, one chain of several): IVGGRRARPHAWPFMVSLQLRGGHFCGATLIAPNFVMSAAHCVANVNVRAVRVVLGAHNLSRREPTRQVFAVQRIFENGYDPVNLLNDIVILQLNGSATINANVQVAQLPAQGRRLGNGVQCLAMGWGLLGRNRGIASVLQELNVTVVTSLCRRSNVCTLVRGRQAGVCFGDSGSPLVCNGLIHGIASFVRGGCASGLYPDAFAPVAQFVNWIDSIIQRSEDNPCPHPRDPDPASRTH
pKd: −log10 of the molar value.
metric-name: pKd

>>> numeric_value("ligand 14 3'-truncated (ssRNA, 2'-NH2 all pyrimidines) RNA: GGGAGCUCAGAAUAAACGCUCAAGGCAGACAUACGCCUUGGGGGGGUUUCAGGGUAUAUGGCA")
7.84
